# measurementNotes: Half life in Beagle dog at 5 mg/kg, iv
# Assay type: ADME, organism-based, Canis lupus familiaris
# Parameters: dose 5 mg/kg, route intravenous
# conditionLabel: in vivo
readoutType: half-life
The number alone won't do; follow it with the unit.

Consider the compound shown here: Cc1cc(-c2c(Cl)cccc2Cl)cc2nnc(Nc3ccc(OCCN4CCCC4)cc3)nc12 What is its recorded half-life?
15.1 h

----------
# measurementNotes: Half life in Sprague-Dawley rat at 5 mg/kg, ip
# Format: ADME, organism-based
# Parameters: dose 5 mg/kg, route intraperitoneal
# conditionLabel: in vivo
readoutType: half-life (h)
Please state the figure in h; there is no need to write the unit.

Looking for the measured half-life of Cc1cc(-c2c(Cl)cccc2Cl)cc2nnc(Nc3ccc(OCC[N+]4([O-])CCCC4)cc3)nc12 , can you help?
2.3

----------
# measurementNotes: AUC (0 to last) in Beagle dog at 25 mg/kg, po
# Assay type: ADME, organism-based, Canis lupus familiaris
# Parameters: dose 25 mg/kg, route oral, time 0 - last
# conditionLabel: plasma
readoutType: AUC(0-t) (ng·h/mL)
Use ng·h/mL as the unit, but write only the number.

I'd like to know its AUC(0-t). The compound in question is Cc1cc(-c2c(Cl)cccc2Cl)cc2nnc(Nc3ccc(OCCN4CCCC4)cc3)nc12
2540

----------
// values below are reported Cmax
# measurementNotes: Cmax in BALB/c mouse at 25 mg/kg, po
# Assay type: ADME, organism-based
# Parameters: dose 25 mg/kg, route oral
# conditionLabel: in vivo
Numeric only. Scale: ng/mL

Cc1cc(-c2c(Cl)cccc2Cl)cc2nnc(Nc3ccc(OCCN4CCCC4)cc3)nc12; 618

Dear colleague, I am looking for the recorded Cmax of the following compound: Cc1cc(-c2c(Cl)cccc2Cl)cc2nnc(Nc3ccc(OCC[N+]4([O-])CCCC4)cc3)nc12
171

----------
# measurementNotes: AUC (0 to infinity) in Sprague-Dawley rat at 5 mg/kg, ip
# Type: ADME, organism-based
# Set-up: time infinity, dose 5 mg/kg, route intraperitoneal
# conditionLabel: plasma
readoutType: AUC(0-inf) (ng·h/mL)
State the answer as a number, implicitly in ng·h/mL.

Any idea what AUC(0-inf) was measured for Cc1cc(-c2c(Cl)cccc2Cl)cc2nnc(Nc3ccc(OCC[N+]4([O-])CCCC4)cc3)nc12 ?
4990

----------
# measurementNotes: AUC (0 to infinity) in Sprague-Dawley rat at 30 mg/kg, po
# Format: ADME, organism-based
# Design: time infinity, dose 30 mg/kg, route oral
# conditionLabel: plasma
readoutType: AUC(0-inf) (ng·h/mL)
Respond with the bare value in ng·h/mL.

Cc1cc(-c2c(Cl)cccc2Cl)cc2nnc(Nc3ccc(OCCN4CCCC4)cc3)nc12; 8120

Here is the next item to consider.
Bench note: what AUC(0-inf) did Cc1cc(-c2c(Cl)cccc2Cl)cc2nnc(Nc3ccc(OCC[N+]4([O-])CCCC4)cc3)nc12 show?
9310

----------
# measurementNotes: Cmax in Beagle dog at 25 mg/kg, po
# Type: ADME, organism-based, Canis lupus familiaris
# Design: dose 25 mg/kg, route oral
# conditionLabel: in vivo
readoutType: Cmax (ng/mL)
Please reply with the bare figure in ng/mL and do not write the unit itself.

What Cmax value was documented for this compound, Cc1cc(-c2c(Cl)cccc2Cl)cc2nnc(Nc3ccc(OCCN4CCCC4)cc3)nc12 ?
102

----------
# key: entry, value: clearance
# measurementNotes: Clearance in Sprague-Dawley rat at 5 mg/kg, iv
# Assay type: ADME, organism-based
# Set-up: dose 5 mg/kg, route intravenous
# conditionLabel: in vivo
Express your answer in mL/min/kg, writing the number without its unit.

Cc1cc(-c2c(Cl)cccc2Cl)cc2nnc(Nc3ccc(OCCN4CCCC4)cc3)nc12; 12.7

Then there is this molecule:
Any idea what clearance was measured for Cc1cc(-c2c(Cl)cccc2Cl)cc2nnc(Nc3ccc(OCC[N+]4([O-])CCCC4)cc3)nc12 ?
13.8

----------
# measurementNotes: Clearance in BALB/c mouse at 5 mg/kg, ip
# Type: ADME, organism-based
# Set-up: dose 5 mg/kg, route intraperitoneal
# conditionLabel: in vivo
readoutType: CL/F
Numeric answer plus unit only.

Fill in the blank: the reported CL/F of Cc1cc(-c2c(Cl)cccc2Cl)cc2nnc(Nc3ccc(OCC[N+]4([O-])CCCC4)cc3)nc12 is ____.
11.6 mL/min/kg

----------
Reported AUC(0-inf) values are given for each entry in this list.
# measurementNotes: AUC (0 to infinity) in Sprague-Dawley rat at 5 mg/kg, iv
# Assay type: ADME, organism-based
# Design: time infinity, dose 5 mg/kg, route intravenous
# conditionLabel: plasma
Please reply with the bare figure in ng·h/mL and do not write the unit itself.

Cc1cc(-c2c(Cl)cccc2Cl)cc2nnc(Nc3ccc(OCC[N+]4([O-])CCCC4)cc3)nc12; 6050

Turning now to a further record.
I am curious: what AUC(0-inf) value has been reported for Cc1cc(-c2c(Cl)cccc2Cl)cc2nnc(Nc3ccc(OCCN4CCCC4)cc3)nc12 ?
7030

----------
# measurementNotes: Bioavailability in BALB/c mouse at 25 mg/kg, po
# Format: ADME, organism-based
# conditionLabel: in vivo
readoutType: bioavailability (%)
Number only, in %; omit the unit.

Form field: reported bioavailability of Cc1cc(-c2c(Cl)cccc2Cl)cc2nnc(Nc3ccc(OCC[N+]4([O-])CCCC4)cc3)nc12
3.5

----------
# measurementNotes: Drug level in BALB/c mouse plasma at 5 mg/kg, iv
# Assay type: ADME, organism-based
# Set-up: dose 5 mg/kg, route intravenous
readoutType: C0
Number first, unit second.

Cc1cc(-c2c(Cl)cccc2Cl)cc2nnc(Nc3ccc(OCC[N+]4([O-])CCCC4)cc3)nc12; 9030 ng/mL

Next molecule, C0 to be filled in.
Consider the molecule shown here: Cc1cc(-c2c(Cl)cccc2Cl)cc2nnc(Nc3ccc(OCCN4CCCC4)cc3)nc12 What is its recorded C0?
873 ng/mL

----------
The reader will find reported AUC(0-inf) values listed item by item below.
# measurementNotes: AUC (0 to infinity) in Sprague-Dawley rat at 25 mg/kg, po
# Format: ADME, organism-based
# Design: time infinity, dose 25 mg/kg, route oral
# conditionLabel: plasma
Report as a plain number; the unit ng·h/mL is understood.

Cc1cc(-c2c(Cl)cccc2Cl)cc2nnc(Nc3ccc(OCCN4CCCC4)cc3)nc12; 8010

Recorded AUC(0-inf) of Cc1cc(-c2c(Cl)cccc2Cl)cc2nnc(Nc3ccc(OCC[N+]4([O-])CCCC4)cc3)nc12 , please.
470

----------
# measurementNotes: Clearance in Sprague-Dawley rat at 5 mg/kg, ip
# Assay type: ADME, organism-based
# Parameters: dose 5 mg/kg, route intraperitoneal
# conditionLabel: in vivo
readoutType: CL/F

I would be grateful if you could share the reported CL/F for Cc1cc(-c2c(Cl)cccc2Cl)cc2nnc(Nc3ccc(OCC[N+]4([O-])CCCC4)cc3)nc12 .
17 mL/min/kg

----------
Catalogue of half-life readings, one per entry.
# measurementNotes: Half life in BALB/c mouse at 5 mg/kg, iv
# Format: ADME, organism-based
# Set-up: dose 5 mg/kg, route intravenous
# conditionLabel: in vivo
Your answer is read as h, so omit the unit and give the number.

Cc1cc(-c2c(Cl)cccc2Cl)cc2nnc(Nc3ccc(OCC[N+]4([O-])CCCC4)cc3)nc12; 0.9

Let us examine a further case.
# half-life lookup, item Cc1cc(-c2c(Cl)cccc2Cl)cc2nnc(Nc3ccc(OCCN4CCCC4)cc3)nc12
5.4

----------
# measurementNotes: AUC (0 to infinity) in BALB/c mouse at 5 mg/kg, ip
# Format: ADME, organism-based
# Design: time infinity, dose 5 mg/kg, route intraperitoneal
# conditionLabel: plasma
readoutType: AUC(0-inf) (ng·h/mL)
Form entry: value (ng·h/mL) — number only.

Request the reported AUC(0-inf) associated with Cc1cc(-c2c(Cl)cccc2Cl)cc2nnc(Nc3ccc(OCC[N+]4([O-])CCCC4)cc3)nc12
6520

----------
Listed below: half-life values for each entry.
# measurementNotes: Half life in Sprague-Dawley rat at 5 mg/kg, iv
# Type: ADME, organism-based
# Design: dose 5 mg/kg, route intravenous
# conditionLabel: in vivo
Lab note: write values as number then unit, every time.

Cc1cc(-c2c(Cl)cccc2Cl)cc2nnc(Nc3ccc(OCC[N+]4([O-])CCCC4)cc3)nc12; 1.6 h

Now take the following molecule into account.
Can you share its half-life? I mean this molecule: Cc1cc(-c2c(Cl)cccc2Cl)cc2nnc(Nc3ccc(OCCN4CCCC4)cc3)nc12
8.9 h

----------
# measurementNotes: Bioavailability in Sprague-Dawley rat at 25 mg/kg, po
# Type: ADME, organism-based
# conditionLabel: in vivo
Below, each of the compounds is paired with its reported bioavailability value.
Give the value in % but do not write % after it.

Cc1cc(-c2c(Cl)cccc2Cl)cc2nnc(Nc3ccc(OCCN4CCCC4)cc3)nc12; 23

// moving on: another record for bioavailability
What value of measured bioavailability is listed for Cc1cc(-c2c(Cl)cccc2Cl)cc2nnc(Nc3ccc(OCC[N+]4([O-])CCCC4)cc3)nc12 ?
1.6

meta.source: ChEMBL document CHEMBL1147085
